Values were extracted from PubChem BioAssay (NCI).

tested on: U251 CNS; assay: NCI-60 one-dose screen, 48 h; details: 10 µM
About 83,000 compounds went through this panel and 20% of them were active in at least one assay; those are over-represented in the sample as a whole. Calls of active or inactive are those of the source. Rule for the calls: active = growth percent below 10; inactive = the rest.
Possible outcomes: active, inactive

Compound: COc1ccc(-c2nc3ncccn3c2-c2nnc(-c3ccc(F)cc3)o2)cc1
Category: inactive
//
Compound: Cc1ccc(Nc2nnc(-c3cc(-c4ccncc4)n(-c4ccccc4)n3)s2)cc1
Category: inactive
//
Compound: Clc1ccc(Nc2ccnc(NCCCNc3ccnc4cc(Cl)ccc34)n2)cc1
Category: active
//
Compound: COc1ccc(-c2nsc3c2NC(=O)CC3c2ccc(F)cc2)cc1 (stereo unspecified)
Category: inactive
//
Compound: O=C(O)CC(Cl)C(Cl)CC(=O)O (stereo unspecified)
Category: inactive
//
Compound: CCCCN(CCCC)CCCCCCCCC(O)c1cc2ccccc2c2ccccc12 (stereo unspecified)
Category: inactive

====

system: HOP-62 NSCLC; assay: NCI-60 one-dose screen, 48 h (100 = growth as untreated, 0 = no growth, -100 = all killed); conditions: 10 µM
The panel holds about 83,000 compounds, 20% with a hit somewhere; the sample as a whole holds those more often. Calls of active or inactive are those of the source. Rule for the calls: active = growth percent below 10; inactive = the rest.
# maps each entry to its growth

Compound: COc1cc2nc(Nc3cccc(C(=O)O)c3)nc(N)c2cc1OC
growth: -37.3% (active)
--
Compound: Cc1ccc(NC(=O)Nc2c(Cl)cccc2Cl)cn1
growth: 107% (inactive)
--
Compound: COc1ccc(N2C(=O)C3c4[nH]c5ccc(OCc6ccccc6)cc5c4C4CCC(C(C)C)CC4C3C2=O)cc1 (stereo not given)
growth: 113% (inactive)
--
Compound: Nc1c(C(=O)Nc2cccc3ccccc23)sc2nc3c(cc12)C(=O)CCC3
growth: 26.1% (inactive)
--
Compound: COc1ccc(OC)c(/C=C/c2nnc(Nc3ccc(Cl)cc3)o2)c1
growth: 35.3% (inactive)
--
Compound: COc1ccc2c(c1)N(CCO)C1=C(C(=O)OC1)C2c1cc(OC)c(OC)c(OC)c1 (stereo not given)
growth: 25.6% (inactive)
--
Compound: S=C1SCC(c2ccccc2)S1 (stereo not given)
growth: 108% (inactive)
--
Compound: O=C(N/N=C\c1cc(Cl)ccc1[N+](=O)[O-])c1ccco1
growth: 110% (inactive)
--
Compound: COc1ccc(C2=NN(C(=O)c3ccc(S(C)(=O)=O)cc3)C(c3ccc(OC)c(OC)c3)C2)c(OC)c1 (stereo not given)
growth: 74.4% (inactive)
--
Compound: CC(C)(Cl)CCC1=C(Cl)C(=O)c2ccccc2C1=O
growth: 59% (inactive)

====

test system: CCRF-CEM leukemia; experiment: NCI-60 one-dose screen, 48 h; settings: 10 µM
This is part of a sample that, as a whole, favours compounds with a hit. Of some 83,000 tested, about 20% had one in any assay. Calls of active or inactive are those of the source. How the source made its calls: active means growth percent below 10; inactive means the rest.
Possible outcomes: YES = active, NO = inactive

Compound: O=S(=O)(NCCCNc1nccc(-c2c(-c3ccc(F)cc3)nc3sccn23)n1)c1ccc(F)cc1
Category: NO
--
Compound: CCCC1(CC(=O)O)OCCc2c1[nH]c1ccccc21 (centres undefined)
Category: NO
--
Compound: CN1CCC(CNc2cc(C3(C(=O)Nc4cc(C(=O)Nc5ccc(Cl)c(C(F)(F)F)c5)ccc4F)CC3)ncn2)CC1
Category: YES
--
Compound: Nc1ccc2c(c1)C1(CCC2)NC(=O)NC1=O (centres undefined)
Category: NO
--
Compound: N#Cc1ncc(-c2ccc(C(F)(F)F)cc2)c(NCc2cc(C(F)(F)F)cc(C(F)(F)F)c2)n1
Category: NO
--
Compound: COc1ccc(/C=C/C(C)=N/OCC(=O)O)cc1
Category: NO
--
Compound: O=C(O)CCCCSc1ncnc2nc[nH]c12
Category: NO
--
Compound: CC/C(=C(/c1ccc(OCCN(C)C)cc1)c1ccc(OC(=O)CCCCC(=O)c2c(C)[nH]c(/C=C3\N=C(c4ccc[nH]4)C=C3OC)c2C)cc1)c1ccccc1
Category: YES
--
Compound: Cc1ccc(Nc2cc(C)nc(NCCCNc3ccnc4cc(Cl)ccc34)n2)cc1
Category: YES
--
Compound: COc1ccc(-c2cc(/C=C3\C(=O)Nc4ccc(OC)cc43)[nH]n2)cc1
Category: NO
--
Compound: CN(C)C(=S)N/N=C\C=N/NC(=S)N(C)C
Category: NO
--
Compound: CCCCCCCCCCCCCCCC(=O)OC1[C@@H](OC(=O)CCCCCCCCCCCCCCC)[C@@H](C(=O)N[C@@H](CCCCN)C(=O)OC)O[C@H]1n1cnc2c(=O)[nH]c(NC(=O)C(C)C)nc21 (some centres undefined)
Category: NO
--
Compound: N#Cc1ncc(Br)c(NC2CCCCCC2)n1
Category: NO
--
Compound: O=C(CCCCCCC(=O)Nc1cccnc1)NO
Category: YES
--
Compound: O=C1/C(=C\c2ccc(F)cc2)CN(C(=O)c2ccc([N+](=O)[O-])cc2)C/C1=C\c1ccc(F)cc1
Category: YES
--
Compound: N#CCCN(NC(=O)OCc1ccccc1)C(=O)OCc1ccccc1
Category: NO
--
Compound: O=[P@@]1(c2ccccc2)O[C@H](COCc2ccccc2)[C@@H](OCc2ccccc2)[C@H](OCc2ccccc2)[C@H]1O
Category: NO
--
Compound: O=C(CCCCC(=O)Nc1ccc2c(c1)/C(=C/c1ccc[nH]1)C(=O)N2)NO
Category: NO
--
Compound: COc1cc(-c2nc(-c3nnc(-c4ccccc4Cl)o3)c3ccccn23)cc(OC)c1OC
Category: NO
--
Compound: O=C1OCC2=C1C(c1cccc(Br)c1)c1cc3c(cc1N2CCO)CCC3 (centres undefined)
Category: YES
--
Compound: O=C1OCC2=C1C(c1cccc(Cl)c1)c1cc3c(cc1N2CCO)OCCO3 (centres undefined)
Category: YES
--
Compound: COc1ccc2c(c1)N(CCO)C1=C(C(=O)OC1)C2c1ccccc1 (centres undefined)
Category: NO
--
Compound: O=C(O)C(SC(C(=O)O)c1ccccc1)c1ccccc1 (centres undefined)
Category: NO
--
Compound: O=C1C(c2ccccc2)C2C=CC(C2)N1O (centres undefined)
Category: NO
--
Compound: CC12O[C@H](C[C@@H](O)[C@H]1O)n1c3ccccc3c3c4c(c5c6ccccc6n2c5c31)C(=O)N(CCCN)C4=O
Category: NO
--
Compound: CCN1CCC2(CC1)OC(c1ccccc1)C(c1ccccc1)O2 (centres undefined)
Category: NO
--
Compound: Cc1ccc(N=Nc2c(N)nc(N)[nH]c2=O)cc1C
Category: NO
--
Compound: Nc1ncnc2[nH]c(=O)[nH]c12
Category: NO
--
Compound: COc1cc(-c2cc(-c3cc4c([nH]c5ccccc54)c(-c4cc(OC)c(OC)c(OC)c4)n3)cc(-c3ccccc3)n2)cc(OC)c1OC
Category: NO
--
Compound: CCCCCCN1CCN(Cc2ccc(N(CC)CC)cc2)C(=O)C1=O
Category: YES
--
Compound: C#Cc1ccc(-n2c(/C=C/c3ccc4ccccc4c3)nc3ncccc3c2=O)cc1
Category: YES
--
Compound: COc1ccc(/C=C2/CN(C(=O)c3ccccc3F)C/C(=C\c3ccc(OC)cc3)C2=O)cc1
Category: YES
--
Compound: c1ccc(C(NC2CC3CCC2C3)c2ccccc2)cc1 (centres undefined)
Category: NO
--
Compound: C[C@]12CC[C@@H]3c4ccc(O)cc4C[C@@H](O)[C@H]3[C@@H]1CC[C@@H]2O
Category: NO
--
Compound: COc1ccc(-c2nc3sccn3c2-c2nc3c([nH]2)C(=O)c2ccccc2C3=O)cc1
Category: NO
--
Compound: O=S(=O)(NCCCNc1nccc(-c2c(-c3ccc(F)cc3)nc3sccn23)n1)c1ccc2ccccc2c1
Category: NO
--
Compound: C/C(=N\Nc1nc2ccccc2s1)c1ccncn1
Category: YES
--
Compound: O=c1cc(-c2ccccc2)[nH]n1-c1nc2ccccc2[nH]1
Category: NO
--
Compound: CC/C(=C(/c1ccc(OCCN(C)C)cc1)c1ccc(OC(=O)CCCCCCCCC(=O)c2c(C)[nH]c(/C=C3\N=C(c4ccc[nH]4)C=C3OC)c2C)cc1)c1ccccc1
Category: NO
